Origin of the recorded values: patent US8148373B2

Target Entity: human muscarinic acetylcholine M3 receptor (M3-ACh) (Homo sapiens, UniProt P20309)
Construct: expressed in transfected cells; host or cells: CHO-K1 (Chinese Hamster Ovary) cell membranes
Sequence (P20309 whole entry): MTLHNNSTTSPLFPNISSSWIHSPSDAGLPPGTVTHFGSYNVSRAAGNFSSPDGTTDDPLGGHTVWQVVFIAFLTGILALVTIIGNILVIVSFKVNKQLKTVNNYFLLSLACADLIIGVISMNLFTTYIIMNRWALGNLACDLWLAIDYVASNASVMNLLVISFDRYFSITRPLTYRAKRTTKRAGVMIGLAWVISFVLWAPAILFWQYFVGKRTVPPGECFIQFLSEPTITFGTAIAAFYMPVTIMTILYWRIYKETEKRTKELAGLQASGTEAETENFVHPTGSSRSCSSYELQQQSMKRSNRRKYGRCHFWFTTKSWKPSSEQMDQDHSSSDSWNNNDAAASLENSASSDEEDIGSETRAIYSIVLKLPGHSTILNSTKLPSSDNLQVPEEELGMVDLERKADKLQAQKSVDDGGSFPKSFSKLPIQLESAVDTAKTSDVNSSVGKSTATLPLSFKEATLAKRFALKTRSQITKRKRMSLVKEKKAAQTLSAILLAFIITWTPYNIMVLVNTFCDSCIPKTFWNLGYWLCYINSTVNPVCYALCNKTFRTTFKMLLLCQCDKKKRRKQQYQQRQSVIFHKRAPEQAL
Method Notes: Muscarinic 3 Receptor Binding Assay ([3H]NMS competition, SPA)
Measurement Context: [3H]NMS 0.1 nM, CHO-K1 cell membranes, 16 hours at room temperature; read-out: M3 pIC50 (converted)
Please use Yes for IC50 under 1 nM and No for everything else, ties included.

Here are 4 compounds together with their reported answers.
[[record]]
compound = "CCC(CC)c1nc(C(=O)N2CCOC3(CCN(Cc4cccc(CCNC[C@H](O)c5ccc(O)c6[nH]c(=O)sc56)c4)CC3)C2)cs1 [Example 265, ditrifluoroacetate]"
assigned_label = "Yes"

[[record]]
compound = "CC(C)c1nc(C(=O)N2CCOC3(CCN(Cc4cc(CCNC[C@H](O)c5ccc(O)c6[nH]c(=O)sc56)cs4)CC3)C2)cs1 [Example 36, ditrifluoroacetate]"
assigned_label = "Yes"

[[record]]
compound = "O=C(c1ccc2occc2c1)N1CCOC2(CCN(CCCCCCCCCNC[C@H](O)c3ccc(O)c4[nH]c(=O)sc34)CC2)C1"
assigned_label = "No"

[[record]]
compound = "Cc1nc(C(=O)N2CCOC3(CCN(CCc4ccc(CCNC[C@H](O)c5ccc(O)c6[nH]c(=O)sc56)s4)CC3)C2)cs1 [Example 4, ditrifluoroacetate]"
assigned_label = "No"


Confirm or reject: IC50 of Cc1nc(C(=O)N2CCOC3(CCN(CCOc4cccc(CNC[C@H](O)c5ccc(O)c6[nH]c(=O)sc56)c4)CC3)C2)cs1 [Example 10, ditrifluoroacetate] lies strictly below 1 nM
No

Now consider CCc1cc(C(=O)N2CCOC3(CCN(Cc4cccc(CCNC[C@H](O)c5ccc(O)c6[nH]c(=O)sc56)c4)CC3)C2)cs1 [Example 86, ditrifluoroacetate] .
Yes

====

// β2 Intrinsic activity lookup, one value per entry
Target Entity: Adrenergic β2 (H292 cells) (Homo sapiens, UniProt P07550)
Construct: endogenous in cells; host or cells: H292 cells
Sequence (P07550 whole entry): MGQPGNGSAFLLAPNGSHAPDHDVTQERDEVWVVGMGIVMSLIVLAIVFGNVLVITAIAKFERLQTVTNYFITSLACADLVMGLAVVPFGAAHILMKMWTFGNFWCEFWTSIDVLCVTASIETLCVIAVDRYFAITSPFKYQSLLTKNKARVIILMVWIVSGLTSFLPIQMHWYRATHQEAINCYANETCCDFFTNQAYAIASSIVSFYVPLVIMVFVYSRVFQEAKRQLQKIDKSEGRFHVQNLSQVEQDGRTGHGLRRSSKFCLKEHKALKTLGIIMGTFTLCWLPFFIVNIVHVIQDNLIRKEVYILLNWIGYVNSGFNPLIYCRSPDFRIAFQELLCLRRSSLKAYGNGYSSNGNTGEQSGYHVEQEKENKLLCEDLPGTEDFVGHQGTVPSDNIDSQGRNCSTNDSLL
Method Notes: Assay for Adrenergic β2 Mediated cAMP Production (concentration response, AlphaScreen cAMP detection)
Format: cell-based
Measurement Context: fraction relative to the maximum activity determined for formoterol
Where a name gives a salt, the structure may show the parent alone.

Field: example entries. Status: answers known.
[[record]]
compound = "O=C(c1csc(C2CC2)n1)N1CCOC2(CCN(CCCCCCCCCNC[C@H](O)c3ccc(O)c4[nH]c(=O)sc34)CC2)C1 [Example 218]"
value_type = "β2 Intrinsic activity"
endpoint_value = 0.9

[[record]]
compound = "CC(C)c1nc(C(=O)N2CCOC3(CCN(Cc4ccc(F)c(CCNC[C@H](O)c5ccc(O)c6[nH]c(=O)sc56)c4F)CC3)C2)cs1 [Example 45, ditrifluoroacetate]"
value_type = "β2 Intrinsic activity"
endpoint_value = 0.8

[[record]]
compound = "CC(C)c1ccc(C(=O)N2CCOC3(CCN(Cc4cccc(CCNC[C@H](O)c5ccc(O)c6[nH]c(=O)sc56)c4)CC3)C2)s1 [Example 268, ditrifluoroacetate]"
value_type = "β2 Intrinsic activity"
endpoint_value = 1

[[record]]
compound = "CC(C)c1cc(C(=O)N2CCOC3(CCN(Cc4cccc(CCNC[C@H](O)c5ccc(O)c6[nH]c(=O)ccc56)c4)CC3)C2)cs1 [Example 83, ditrifluoroacetate]"
value_type = "β2 Intrinsic activity"
endpoint_value = 0.8

[[record]]
compound = "Cc1nc(C(=O)N2CCOC3(CCN(CCCOc4ccc(CNC[C@H](O)c5ccc(O)c6[nH]c(=O)sc56)cc4)CC3)C2)cs1 [Example 8, ditrifluoroacetate]"
value_type = "β2 Intrinsic activity"
endpoint_value = 1.0


Can you share its β2 Intrinsic activity? I mean this compound: CC(C)c1csc(C(=O)N2CCOC3(CCN(Cc4cc(F)cc(CCNC[C@H](O)c5ccc(O)c6[nH]c(=O)sc56)c4)CC3)C2)n1 [Example 53, ditrifluoroacetate]
1

Now consider O=C(c1csc(C2CCCC2)n1)N1CCOC2(CCN(Cc3cc(F)cc(CCNC[C@H](O)c4ccc(O)c5[nH]c(=O)sc45)c3)CC2)C1 [Example 59, ditrifluoroacetate] .
1

Now consider Cc1ccc(C(=O)N2CCOC3(CCN(CCCCCCCCCNC[C@H](O)c4ccc(O)c5[nH]c(=O)sc45)CC3)C2)s1 [Example 111, formate] .
0.8

Now consider CC(C)Cc1nc(C(=O)N2CCOC3(CCN(Cc4cccc(CCNC[C@H](O)c5ccc(O)c6[nH]c(=O)sc56)c4)CC3)C2)cs1 [Example 84, ditrifluoroacetate] .
0.9

Now consider CC(C)c1nc(C(=O)N2CCOC3(CCN(CCOc4ccc(CCNC[C@H](O)c5ccc(O)c6[nH]c(=O)sc56)c(F)c4F)CC3)C2)cs1 [Example 269, ditrifluoroacetate] .
1.1

Now consider Cc1nc(C(=O)N2CCOC3(CCN(CCc4ccc(CNC[C@H](O)c5ccc(O)c6[nH]c(=O)sc56)s4)CC3)C2)cs1 [Example 21, ditrifluoroacetate] .
0.5

Now consider CC(C)c1nc(C(=O)N2CC(F)(F)OC3(CCN(Cc4cc(CCNC[C@H](O)c5ccc(O)c6[nH]c(=O)ccc56)cs4)CC3)C2)cs1 [Example 51, ditrifluoroacetate] .
0.9

Now consider CC(C)c1nc(C(=O)N2CCOC3(CCN(Cc4cc(Cl)cc(CCNC[C@H](O)c5ccc(O)c6[nH]c(=O)sc56)c4)CC3)C2)cs1 [Example 52, ditrifluoroacetate] .
0.9

Now consider Cc1nc(C(=O)N2CCOC3(CCN(Cc4cccc(CCNC[C@H](O)c5ccc(O)c6[nH]c(=O)sc56)c4)CC3)C2)cs1 [Example 6, ditrifluoroacetate] .
0.9

Now consider Cc1nc(C(=O)N2CCOC3(CCN(CCOc4cccc(CNC[C@H](O)c5ccc(O)c6[nH]c(=O)sc56)c4)CC3)C2)cs1 [Example 10, ditrifluoroacetate] .
0.9

Now consider CCc1cc(C(=O)N2CCOC3(CCN(Cc4cc(F)cc(CCNC[C@H](O)c5ccc(O)c6[nH]c(=O)sc56)c4)CC3)C2)cs1 [Example 93, ditrifluoroacetate] .
0.8

Now consider CCC(CC)c1nc(C(=O)N2CCOC3(CCN(Cc4cccc(CCNC[C@H](O)c5ccc(O)c6[nH]c(=O)sc56)c4F)CC3)C2)cs1 [Example 71, ditrifluoroacetate] .
0.8

Now consider COC(=O)c1ccc(C(=O)N2CCOC3(CCN(Cc4cccc(CCNC[C@H](O)c5ccc(O)c6[nH]c(=O)sc56)c4)CC3)C2)s1 [Example 30, ditrifluoroacetate] .
0.9

Now consider O=C(c1csc(C2CC2)n1)N1CCOC2(CCN(CCOc3ccc(CNC[C@H](O)c4ccc(O)c5[nH]c(=O)sc45)cc3)CC2)C1 [Example 259] .
0.9

Now consider CC(C)c1nc(C(=O)N2CCOC3(CCN(CCCCCCC(C)(C)CCNC[C@H](O)c4ccc(O)c5[nH]c(=O)sc45)CC3)C2)cs1 [Example 279, formate] .
0.9

Now consider CC(C)(C)c1nc(C(=O)N2CCOC3(CCN(Cc4cc(CCNC[C@H](O)c5ccc(O)c6[nH]c(=O)sc56)cs4)CC3)C2)cs1 [Example 43, ditrifluoroacetate] .
0.8

Now consider CC(C)c1nc(C(=O)N2CCOC3(CCN(Cc4cccc(CCCNC[C@H](O)c5ccc(O)c6[nH]c(=O)sc56)c4F)CC3)C2)cs1 [Example 88, ditrifluoroacetate] .
1

====

// IC50 lookup, one value per entry
Target Entity: human muscarinic acetylcholine M3 receptor (M3-ACh) (Homo sapiens)
Construct: expressed in transfected cells; host or cells: CHO-K1 (Chinese Hamster Ovary) cell membranes
Method Notes: Muscarinic 3 Receptor Binding Assay ([3H]NMS competition, SPA)
Measurement Context: [3H]NMS 0.1 nM, CHO-K1 cell membranes, 16 hours at room temperature; read-out: M3 pIC50 (converted)
Method: Muscarinic 3 Receptor Binding Assay The affinity (pIC50) of compounds binding to the M3 receptor is determined by competition binding of [^3H]N-methyl scopolamine (NMS) to CHO-K1 (Chinese Hamster Ovary) cell membranes expressing the human muscarinic acetylcholine M3 receptor (M3-ACh) in a scintillation proximity assay (SPA) format. […]
Counter-ions that a name gives are not always drawn.
Unit nM implied. Number only.

[[record]]
molecule = "O=C(c1csc(C2CC2)n1)N1CCOC2(CCN(Cc3cc(F)cc(CCNC[C@H](O)c4ccc(O)c5[nH]c(=O)sc45)c3)CC2)C1 [Example 57, ditrifluoroacetate]"
endpoint_value = 0.794

[[record]]
molecule = "Cc1nc(C(=O)N2CCOC3(CCN(CCc4ccc(CCNC[C@H](O)c5ccc(O)c6[nH]c(=O)sc56)cc4)CC3)C2)cs1 [Example 5, ditrifluoroacetate]"
endpoint_value = 2.51

[[record]]
molecule = "CC(C)c1nc(C(=O)N2CCOC3(CCN(Cc4ccc(Cl)c(CCNC[C@H](O)c5ccc(O)c6[nH]c(=O)sc56)c4)CC3)C2)cs1 [Example 75, ditrifluoroacetate]"
endpoint_value = 2

[[record]]
molecule = "CC(C)c1nc(C(=O)N2CC(F)(F)OC3(CCN(Cc4cc(CCNC[C@H](O)c5ccc(O)c6[nH]c(=O)ccc56)cs4)CC3)C2)cs1 [Example 51, ditrifluoroacetate]"
endpoint_value = 15.8


Can you share its IC50? I mean this molecule: CC(C)c1nc(C(=O)N2CCOC3(CCN(CCCCCCC(C)(C)CCNC[C@H](O)c4ccc(O)c5[nH]c(=O)sc45)CC3)C2)cs1 [Example 279, formate]
7.94

Now consider Cc1cc(C(=O)N2CCOC3(CCN(CCOc4ccc(CNC[C@H](O)c5ccc(O)c6[nH]c(=O)sc56)cc4)CC3)C2)cs1 [Example 104, formate] .
3.16

Now consider Cc1nc(C(=O)N2CCOC3(CCN(CCOc4cccc(CNC[C@H](O)c5ccc(O)c6[nH]c(=O)ccc56)c4)CC3)C2)cs1 [Example 94, ditrifluoroacetate] .
12.6

Now consider CC(C)(C)CC(=O)N1CCOC2(CCN(Cc3cc(F)cc(CCNC[C@H](O)c4ccc(O)c5[nH]c(=O)sc45)c3)CC2)C1 .
79.4

Now consider Cc1nc(C(=O)N2CCOC3(CCN(CCc4ccc(CNC[C@H](O)c5ccc(O)c6[nH]c(=O)sc56)s4)CC3)C2)cs1 [Example 21, ditrifluoroacetate] .
1
